Target: T1, hBRM-B AT-BRD (AT-hook and bromodomain of human BRM, short isoform, residues 1358-1399 and 1418-1508) (human, UniProt P51531 1358-1399; P51531 1418-1508, 15N-labelled)
T1 chain: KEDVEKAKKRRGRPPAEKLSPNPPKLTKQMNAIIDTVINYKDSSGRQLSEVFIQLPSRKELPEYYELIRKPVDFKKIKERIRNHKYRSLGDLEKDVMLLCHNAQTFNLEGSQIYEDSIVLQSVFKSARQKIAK
Assay: NMR; Kd,obs, AT-BRD pre-bound to DNAI
No end group written: not given here.
OBSERVABLE: Kd

The value of Kd measured for the binder KSTGGK(Ac)APRKQ [H3(9-19)K14ac histone peptide] turned out to be 1120 µM
